# reported pIC50; entries follow
# Test system: HAP1 MTAP-intact cell line
# measurementProtocol: SDMA in-cell western assay, HAP1 MTAP-intact
# Assay type: cell-based
# studyConditions: Homo sapiens, HAP1, SDMA in-cell western, HAP1 MTAP-intact; read-out: MTAP HAP1 intact IC50
pIC50: −log10 of the molar value.

{"molecule": "NC(=O)c1cncc(NC(=O)C(=O)N2C[C@@H](CC(F)(F)F)CC[C@@H]2c2ccccc2)c1 (racemic)", "result": "< 6.00"}

INPUT: Dear colleague, please send me the reported pIC50 for Cc1cc(NC(=O)C(=O)N2C[C@H](C)CC[C@H]2c2ccc(-c3ccn[nH]3)cc2)cnc1N (racemic) when you can.
OUTPUT: 6.00 to 7.00

INPUT: Dear colleague, please send me the reported pIC50 for Cc1cc(NC(=O)C(=O)N2C[C@H](C)C[C@H](F)[C@@H]2c2ccc(F)cc2)cnc1N (racemic) when you can.
OUTPUT: < 6.00
